Below: a set of entries, each annotated with reported pIC50.
Target: IMP-1 (Serratia marcescens, UniProt P52699)
Sequence (P52699 whole entry, looked up, species assumed): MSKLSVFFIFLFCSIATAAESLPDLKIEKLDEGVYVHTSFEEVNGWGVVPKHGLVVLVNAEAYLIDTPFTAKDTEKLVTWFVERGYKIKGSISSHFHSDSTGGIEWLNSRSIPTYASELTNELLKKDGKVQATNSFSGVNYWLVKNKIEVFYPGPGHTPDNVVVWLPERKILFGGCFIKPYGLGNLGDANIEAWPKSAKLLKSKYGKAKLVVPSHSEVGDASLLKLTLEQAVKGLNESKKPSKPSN
Assay: biochemical
Type: biochemical
Settings: CCF2-FA substrate, 2 hours at 25° C; read-out: IMP-1 IC50
pIC50: −log10 of the molar value.

| Compound | pIC50 |
| --- | --- |
| Cn1cc2ccc(-c3ccc(S(=O)(=O)CCN)c(S(N)(=O)=O)c3-c3nnn[nH]3)cc2n1.O=C(O)C(F)(F)F [Example 154, 2,2,2-trifluoroacetate] | 9.17 |
| CS(=O)(=O)c1ccc([C@H]2CC[C@@H](N)CC2)c(-c2nnn[nH]2)c1S(N)(=O)=O | 7.19 |
| Cc1nnc2ccc(-c3ccc(S(=O)(=O)CCN)c(S(N)(=O)=O)c3-c3nnn[nH]3)cn12.O=C(O)C(F)(F)F [Example 133, 2,2,2-trifluoroacetate] | 7.53 |

----------
The following compounds are listed with their measured log10 of IC50 values.
Molecular target: NDM-1 (Klebsiella pneumoniae)
Sequence (C7C422 whole entry, looked up, species assumed): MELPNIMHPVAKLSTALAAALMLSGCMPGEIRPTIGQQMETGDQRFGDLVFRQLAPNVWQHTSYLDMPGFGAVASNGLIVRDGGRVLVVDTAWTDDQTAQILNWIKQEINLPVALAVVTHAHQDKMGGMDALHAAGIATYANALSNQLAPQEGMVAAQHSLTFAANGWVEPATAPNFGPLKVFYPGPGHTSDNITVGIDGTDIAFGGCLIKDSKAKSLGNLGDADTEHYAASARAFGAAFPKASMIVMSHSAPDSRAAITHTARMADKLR
Assay: biochemical
Assay type: biochemical
Settings: CCF2-FA substrate, 2 hours at 25° C; read-out: NDM-1 IC50
Assay Readout: log10 of IC50 (log10 of the value in nM)

| Compound | Test System | log10 of IC50 |
| --- | --- | --- |
| Nc1nc2ccc(-c3ccc([S+]([O-])C4CCNCC4)c(S(N)(=O)=O)c3-c3nn[nH]n3)cc2[nH]1 (stereo not shown) [Example 12] | NDM-1 (Klebsiella pneumoniae) | 0.61 |
| NC[C@H](N)CS(=O)(=O)c1ccc(-c2cccc3[nH]c(N)nc23)c(-c2nnn[nH]2)c1S(N)(=O)=O [Example 293] | NDM-1 (Klebsiella pneumoniae) | -0.80 |
| NCCS(=O)(=O)c1ccc(-c2cccc3[nH]c(CN)nc23)c(-c2nn[nH]n2)c1S(N)(=O)=O [Example 305] | NDM-1 (Klebsiella pneumoniae) | -0.19 |
| Nc1nc2cccc(-c3ccc(S(=O)(=O)C4CCNCC4)c(S(N)(=O)=O)c3-c3nn[nH]n3)c2[nH]1 [Example 42] | NDM-1 (Klebsiella pneumoniae) | -0.75 |
| NCCS(=O)(=O)c1ccc(-c2cccc(NC(=O)CN)c2NC(=O)CN)c(-c2nn[nH]n2)c1S(N)(=O)=O [Example 338] | NDM-1 (Klebsiella pneumoniae) | 1.31 |
| Nc1nc2c(-c3ccc(S(=O)(=O)[C@H]4C[C@@H](N)C4)c(S(N)(=O)=O)c3-c3nn[nH]n3)cccc2s1 [Example 180] | NDM-1 (Klebsiella pneumoniae) | -1.08 |
| Nc1n[nH]c2cccc(-c3ccc(S(=O)(=O)C4CNC4)c(S(N)(=O)=O)c3-c3nnn[nH]3)c12 [Example 263] | NDM-1 (Klebsiella pneumoniae) | -0.37 |

----------
Known log10(IC50) of a selection of molecules
Target: VIM-1 (Pseudomonas aeruginosa (strain ATCC 15692 / DSM 22644 / CIP 104116 / JCM 14847 / LMG 12228 / 1C / PRS 101 / PAO1))
Assay: biochemical
Settings: CCF2-FA substrate, 2 hours at 25° C
Assay Readout: log10(IC50) (log10 of the value in pM)

| Molecule | log10(IC50) |
| --- | --- |
| NCCS(=O)(=O)c1ccc(-c2ccccc2N)c(-c2nn[nH]n2)c1S(N)(=O)=O | 3.25 |
| NCCS(=O)(=O)c1ccc(-c2cccc3[nH]c([C@H](N)CNC(=O)C(F)(F)F)nc23)c(-c2nn[nH]n2)c1S(N)(=O)=O | 2.68 |
| Nc1ncccc1-c1ccc(S(=O)(=O)C2CNC2)c(S(N)(=O)=O)c1-c1nn[nH]n1 | 2.72 |
| NS(=O)(=O)c1c([S+]([O-])C2CNC2)ccc(-c2ccc(C3CCNCC3)cc2)c1-c1nn[nH]n1 (centres unmarked) | 3.31 |
| CCOC(=O)N1CC(S(=O)(=O)c2ccc(-c3cccc4[nH]c(N)nc34)c(-c3nn[nH]n3)c2S(N)(=O)=O)C1 | 2.65 |
| Nc1n[nH]c2ccc(-c3ccc(S(=O)(=O)C4CNC4)c(S(N)(=O)=O)c3-c3nnn[nH]3)cc12 | 2.24 |
| Cn1ncc2c(-c3ccc(S(=O)(=O)C4CNC4)c(S(N)(=O)=O)c3-c3nnn[nH]3)cccc21.O=C(O)C(F)(F)F [Example 123, 2,2,2-trifluoroacetate] | 2.33 |
| NCCS(=O)(=O)c1ccc(-c2cccn3ccnc23)c(-c2nnn[nH]2)c1S(N)(=O)=O | 2.53 |
| Nc1nc2c(-c3ccc(S(=O)(=O)C[C@H](N)CO)c(S(N)(=O)=O)c3-c3nn[nH]n3)cccc2[nH]1 | 2.40 |
| NS(=O)(=O)c1c(S(=O)(=O)C2CNC2)ccc(-c2cccc3ncccc23)c1-c1nnn[nH]1.O=C(O)C(F)(F)F [Example 118, 2,2,2-trifluoroacetate] | 2.59 |
| COc1cc(-c2ccc(S(=O)(=O)CCN)c(S(N)(=O)=O)c2-c2nnn[nH]2)cnc1N.O=C(O)C(F)(F)F [Example 169, 2,2,2-trifluoroacetate] | 3.01 |
| NS(=O)(=O)c1c(S(=O)(=O)C2CNC2)ccc(-c2cccc3[nH]cnc23)c1-c1nn[nH]n1 | 2.44 |
| Nc1cccc(-c2ccc(S(=O)(=O)C3CNC3)c(S(N)(=O)=O)c2-c2nn[nH]n2)n1 | 3.50 |
| NS(=O)(=O)c1c(S(=O)(=O)C2CNC2)ccc(-c2cccc3sc(C(=O)O)nc23)c1-c1nnn[nH]1 | 2.41 |

----------
Overview of reported IC50 across a group of compounds:
Target: VIM-1 (Pseudomonas aeruginosa (strain ATCC 15692 / DSM 22644 / CIP 104116 / JCM 14847 / LMG 12228 / 1C / PRS 101 / PAO1))
Test: biochemical
Conditions: CCF2-FA substrate, 2 hours at 25° C
Assay Readout: IC50 (nM)

| Compound | Measure Unit | Result Value |
| --- | --- | --- |
| CCOC(=O)N1CCC(S(=O)(=O)c2ccc(-c3cccc4nc(N)[nH]c34)c(-c3nn[nH]n3)c2S(N)(=O)=O)CC1 [Example 46] | nM | 0.378 |
| CS(=O)(=O)c1ccc(-c2ccc(N)nc2)c(-c2nn[nH]n2)c1S(N)(=O)=O [Example 237] | nM | 0.754 |
| Cn1nc(N)c2c(-c3ccc(S(=O)(=O)C4CNC4)c(S(N)(=O)=O)c3-c3nnn[nH]3)cccc21 [Example 265] | nM | 0.239 |
| NCCS(=O)(=O)c1ccc(-c2ccc3cccnc3c2)c(-c2nnn[nH]2)c1S(N)(=O)=O.O=C(O)C(F)(F)F [Example 159, 2,2,2-trifluoroacetate] | nM | 0.264 |
| Nc1nc2c(-c3ccc(S(=O)(=O)C4CNC4)c(S(N)(=O)=O)c3-c3nn[nH]n3)cccc2s1 [Example 317] | nM | 0.189 |
| NCCS(=O)(=O)c1ccc(-c2cccc3nc(N)oc23)c(-c2nn[nH]n2)c1S(N)(=O)=O [Example 74] | nM | 0.172 |
| N#Cc1cc(-c2ccc(S(=O)(=O)C3CNC3)c(S(N)(=O)=O)c2-c2nnn[nH]2)c2[nH]c(N)nc2c1 [Example 261] | nM | 0.734 |
| Nc1nc2cccc(-c3ccc(S(=O)(=O)[C@@H]4CCNC4)c(S(N)(=O)=O)c3-c3nn[nH]n3)c2[nH]1 [Example 181] | nM | 0.42 |
| NC[C@@H](O)CS(=O)(=O)c1ccc(-c2cc(I)cc3[nH]c(N)nc23)c(-c2nn[nH]n2)c1S(N)(=O)=O [Example 379] | nM | 0.123 |
| CC(=O)N1CC(S(=O)(=O)c2ccc(-c3cccc4nc(N)[nH]c34)c(-c3nn[nH]n3)c2S(N)(=O)=O)C1 [Example 54] | nM | 0.435 |
| NS(=O)(=O)c1c(S(=O)(=O)CC2CNC2)ccc([C@H]2CC[C@@H](N)CC2)c1-c1nnn[nH]1 [Example 205] | nM | 6.64 |
| NS(=O)(=O)c1c(SC2CNC2)ccc(-c2cccc3nccn23)c1-c1nnn[nH]1 [Example 63] | nM | 30.5 |
| NCCS(=O)(=O)c1ccc(-c2cccc3cn[nH]c23)c(-c2nnn[nH]2)c1S(N)(=O)=O [Example 298] | nM | 0.257 |
| NS(=O)(=O)c1c(SC2CNC2)ccc(-c2ccc(NS(=O)(=O)C3CC3)cc2)c1-c1nn[nH]n1 [Example 243] | nM | 9.86 |
| NCCS(=O)(=O)c1ccc(-c2cccc3nc(N)nn23)c(-c2nn[nH]n2)c1S(N)(=O)=O [Example 225] | nM | 0.229 |
| NS(=O)(=O)c1c(S(=O)(=O)C2CNC2)ccc(-c2cccc3sc(O)nc23)c1-c1nn[nH]n1 [Example 309] | nM | 0.145 |
| CNC(=O)c1ccc(-c2ccc(S(=O)(=O)CCN)c(S(N)(=O)=O)c2-c2nnn[nH]2)cn1.O=C(O)C(F)(F)F [Example 139, 2,2,2-trifluoroacetate] | nM | 2.04 |
| NS(=O)(=O)c1c(S(=O)(=O)C2CNC2)ccc(-c2ccc3ncccc3c2)c1-c1nnn[nH]1.O=C(O)C(F)(F)F [Example 115, 2,2,2-trifluoroacetate] | nM | 0.276 |
| NCCS(=O)(=O)c1ccc(-c2cccc3[nH]c(C(F)(F)F)nc23)c(-c2nn[nH]n2)c1S(N)(=O)=O [Example 308] | nM | 0.219 |
| CC(=O)N1CCC(S(=O)(=O)c2ccc(-c3cccc4nc(N)[nH]c34)c(-c3nn[nH]n3)c2S(N)(=O)=O)CC1 [Example 44] | nM | 0.299 |
| NCCS(=O)(=O)c1ccc(-c2cccc3ccc(N)nc23)c(-c2nn[nH]n2)c1S(N)(=O)=O [Example 71] | nM | 0.315 |
| Cn1c(N)nc2cccc(-c3ccc(S(=O)(=O)C4CNC4)c(S(N)(=O)=O)c3-c3nn[nH]n3)c21 [Example 19] | nM | 0.153 |
| NS(=O)(=O)c1c(S(=O)(=O)C2CNC2)ccc(-c2ccc(O)nc2)c1-c1nnn[nH]1.O=C(O)C(F)(F)F [Example 109, 2,2,2-trifluoroacetate] | nM | 1.44 |
| CS(=O)(=O)N1CC(S(=O)(=O)c2ccc(-c3cccc4[nH]c(N)nc34)c(-c3nn[nH]n3)c2S(N)(=O)=O)C1 [Example 55] | nM | 0.312 |
| Cn1c(N)nc2c(-c3ccc(S(=O)(=O)C[C@@H](O)CN)c(S(N)(=O)=O)c3-c3nn[nH]n3)cccc21 [Example 363] | nM | 0.356 |
| Nc1nc2c(-c3ccc(S(=O)(=O)CCO)c(S(N)(=O)=O)c3-c3nn[nH]n3)cccc2c[n+]1[O-] [Example 319] | nM | 0.407 |
| Cc1ccc(-c2ccc(S(=O)(=O)[C@@H]3CCNC3)c(S(N)(=O)=O)c2-c2nn[nH]n2)c2nc(N)sc12 [Example 187] | nM | 0.159 |

// data source = patent US10227331B2
